// reported melting temperature for each item listed
Test system: HeLa Kyoto;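 note: HeLa Kyoto cells synchronized by double thymidine or nocodazole block, proteins quantified by TMT10plex mass spectrometry, three independent biological replicates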
EXPERIMENTAL_PROTOCOL: melting temperature (median over replicates), in situ; higher = more thermally stable
RECORDED_CONDITIONS: cell cycle stage: G1/S
Reply numerically in °C, unit not repeated.

Some entries whose results are on file:
sequence_input="MPKRKVTFQGVGDEEDEDEIIVPKKKLVDPVAGSGGPGSRFKGKHSLDSDEEEDDDDGGSSKYDILASEDVEGQEAATLPSEGGVRITPFNLQEEMEEGHFDADGNYFLNRDAQIRDSWLDNIDWVKIRERPPGQRQASDSEEEDSLGQTSMSAQALLEGLLELLLPRETVAGALRRLGARGGGKGRKGPGQPSSPQRLDRLSGLADQMVARGNLGVYQETRERLAMRLKGLGCQTLGPHNPTPPPSLDMFAEELAEEELETPTPTQRGEAESRGDGLVDVMWEYKWENTGDAELYGPFTSAQMQTWVSEGYFPDGVYCRKLDPPGGQFYNSKRIDFDLYT [CD2BP2]" quantity_kind="melting temperature" unit_annotation=°C observed_measurement=47.9
sequence_input="MESALPAAGFLYWVGAGTVAYLALRISYSLFTALRVWGVGNEAGVGPGLGEWAVVTGSTDGIGKSYAEELAKHGMKVVLISRSKDKLDQVSSEIKEKFKVETRTIAVDFASEDIYDKIKTGLAGLEIGILVNNVGMSYEYPEYFLDVPDLDNVIKKMININILSVCKMTQLVLPGMVERSKGAILNISSGSGMLPVPLLTIYSATKTFVDFFSQCLHEEYRSKGVFVQSVLPYFVATKLAKIRKPTLDKPSPETFVKSAIKTVGLQSRTNGYLIHALMGSIISNLPSWIYLKIVMNMNKSTRAHYLKKTKKN [HSD17B12]" quantity_kind="melting temperature" unit_annotation=°C observed_measurement=53.9
sequence_input="MAITLEEAPWLGWLLVKALMRFAFMVVNNLVAIPSYICYVIILQPLRVLDSKRFWYIEGIMYKWLLGMVASWGWYAGYTVMEWGEDIKAVSKDEAVMLVNHQATGDVCTLMMCLQDKGLVVAQMMWLMDHIFKYTNFGIVSLVHGDFFIRQGRSYRDQQLLLLKKHLENNYRSRDRKWIVLFPEGGFLRKRRETSQAFAKKNNLPFLTNVTLPRSGATKIILNALVAQQKNGSPAGGDAKELDSKSKGLQWIIDTTIAYPKAEPIDIQTWILGYRKPTVTHVHYRIFPIKDVPLETDDLTTWLYQRFVEKEDLLSHFYETGAFPPSKGHKEAVSREMTLSNLWIFLIQSFAFLSGYMWYNIIQYFYHCLF [LPGAT1]" quantity_kind="melting temperature" unit_annotation=°C observed_measurement=51.1
sequence_input="MHSEAEESKEVATDVFNSKNLAVQAQKKILGKMVSKSIATTLIDDTSSEVLDELYRVTREYTQNKKEAEKIIKNLIKTVIKLAILYRNNQFNQDELALMEKFKKKVHQLAMTVVSFHQVDYTFDRNVLSRLLNECREMLHQIIQRHLTAKSHGRVNNVFDHFSDCEFLAALYNPFGNFKPHLQKLCDGINKMLDEENI [TNFAIP8]" quantity_kind="melting temperature" unit_annotation=°C observed_measurement=51.9
sequence_input="MDHSHHMGMSYMDSNSTMQPSHHHPTTSASHSHGGGDSSMMMMPMTFYFGFKNVELLFSGLVINTAGEMAGAFVAVFLLAMFYEGLKIARESLLRKSQVSIRYNSMPVPGPNGTILMETHKTVGQQMLSFPHLLQTVLHIIQVVISYFLMLIFMTYNGYLCIAVAAGAGTGYFLFSWKKAVVVDITEHCH [SLC31A1]" quantity_kind="melting temperature" unit_annotation=°C observed_measurement=56.5
sequence_input="MLSLRVPLAPITDPQQLQLSPLKGLSLVDKENTPPALSGTRVLASKTARRIFQEPTEPKTKAAAPGVEDEPLLRENPRRFVIFPIEYHDIWQMYKKAEASFWTAEEVDLSKDIQHWESLKPEERYFISHVLAFFAASDGIVNENLVERFSQEVQITEARCFYGFQIAMENIHSEMYSLLIDTYIKDPKEREFLFNAIETMPCVKKKADWALRWIGDKEATYGERVVAFAAVEGIFFSGSFASIFWLKKRGLMPGLTFSNELISRDEGLHCDFACLMFKHLVHKPSEERVREIIINAVRIEQEFLTEALPVKLIGMNCTLMKQYIEFVADRLMLELGFSKVFRVENPFDFMENISLEGKTNFFEKRVGEYQRMGVMSSPTENSFTLDADF [RRM2]" quantity_kind="melting temperature" unit_annotation=°C observed_measurement=56.8

QUERY: Check the records and state melting temperature for MSLEQEEETQPGRLLGRRDAVPAFIEPNVRFWITERQSFIRRFLQWTELLDPTNVFISVESIENSRQLLCTNEDVSSPASADQRIQEAWKRSLATVHPDSSNLIPKLFRPAAFLPFMAPTVFLSMTPLKGIKSVILPQVFLCAYMAAFNSINGNRSYTCKPLERSLLMAGAVASSTFLGVIPQFVQMKYGLTGPWIKRLLPVIFLVQASGMNVYMSRSLESIKGIAVMDKEGNVLGHSRIAGTKAVRETLASRIVLFGTSALIPEVFTYFFKRTQYFRKNPGSLWILKLSCTVLAMGLMVPFSFSIFPQIGQIQYCSLEEKIQSPTEETEIFYHRGV [SFXN4]
RESULT: 53.9

QUERY: Quick one: give measured melting temperature for MAEGERQPPPDSSEEAPPATQNFIIPKKEIHTVPDMGKWKRSQAYADYIGFILTLNEGVKGKKLTFEYRVSEMWNEVHEEKEQAAKQSVSCDECIPLPRAGHCAPSEAIEKLVALLNTLDRWIDETPPVDQPSRFGNKAYRTWYAKLDEEAENLVATVVPTHLAAAVPEVAVYLKESVGNSTRIDYGTGHEAAFAAFLCCLCKIGVLRVDDQIAIVFKVFNRYLEVMRKLQKTYRMEPAGSQGVWGLDDFQFLPFIWGSSQLIDHPYLEPRHFVDEKAVNENHKDYMFLECILFITEMKTGPFAEHSNQLWNISAVPSWSKVNQGLIRMYKAECLEKFPVIQHFKFGSLLPIHPVTSG [PPP2R4]
RESULT: 53.8

QUERY: For the sequence MVSVINTVDTSHEDMIHDAQMDYYGTRLATCSSDRSVKIFDVRNGGQILIADLRGHEGPVWQVAWAHPMYGNILASCSYDRKVIIWREENGTWEKSHEHAGHDSSVNSVCWAPHDYGLILACGSSDGAISLLTYTGEGQWEVKKINNAHTIGCNAVSWAPAVVPGSLIDHPSGQKPNYIKRFASGGCDNLIKLWKEEEDGQWKEEQKLEAHSDWVRDVAWAPSIGLPTSTIASCSQDGRVFIWTCDDASSNTWSPKLLHKFNDVVWHVSWSITANILAVSGGDNKVTLWKESVDGQWVCISDVNKGQGSVSASVTEGQQNEQ [SEC13] , report melting temperature.
RESULT: 50.5

Cited source: the supplement of paper PMC5998384
